molecular target: Tfl-bZip (GCN4 residues 226-281, leucine zipper leucines replaced with 5,5,5-trifluoroleucine) Leu to 5,5,5-trifluoroleucine in the GCN4-p1 dimerization domain (four d-position leucines); test: EMSA; settings: densitometry; CD at 0 C also shows coil-to-helix transition on DNA binding
observable: Kd (nM)
Give bare numbers, in nM.

Name the recorded Kd for TGGAGATGACGTCATCTCCT (double strand) [CREB site oligonucleotide] .
5.4
